- Tested on: parasites (ring stage, in human red blood cell culture)
- experimentalDetails: Parasite LDH growth assay (antiparasite potency, Parasite Assay)
- Type: cell-based, Plasmodium falciparum
- settings: Plasmodium falciparum, Erythrocyte, 72 h, 0.7% rings, 2% haematocrit, 72 hours at 37° C., LDH readout of parasite growth
Assignment: determine reported pEC50 for the given molecules.
Numbers only, as −log10 of the molar value.

The following molecules have reported results that may help.
# molecule, pEC50
measured = [
    ("CCC1(CC)CC(=O)N([C@H]2c3cc(C(=O)N[C@@H]4c5ccccc5OC[C@@]4(C)O)ccc3O[C@]2(C)COC)C(=N)N1", 7.50),
    ("CCC1(CC)CC(=O)N(C2CC(C(=O)N(C)C)Oc3ccc(C(=O)N[C@@H]4c5ccccc5OC[C@@]4(C)O)cc32)C(=N)N1 (stereo partly shown)", 7.29),
    ("CC[C@]1(C)CC(=O)N([C@H]2c3cc(C(=O)N[C@@H]4c5ccccc5C[C@H]4O)ccc3OC[C@@H]2COC)C(=N)N1", 8.72),
    ("CC1(C)CC(=O)N([C@@H]2CC(F)(F)c3ccc(C(=O)N[C@@H]4c5ccccc5OC(C)(C)[C@H]4O)cc32)C(=N)N1", 8.96),
]

Look up pEC50 for the entries below, preserving their order.
1. CCC1(CC)CC(=O)N([C@@H]2CC3(COC3)Oc3ccc(C(=O)N[C@H]4CC(C)(C)Oc5ccccc54)cc32)C(=N)N1 [Example 22A]
2. CC1(C)CC(=O)N([C@@H]2CC(C)(C)Oc3ccc(C(=O)N[C@H]4c5cc(F)ccc5OC(C)(C)[C@@H]4O)cc32)C(=N)N1 [Example 58A]
3. CC[C@]1(C)CC(=O)N([C@H]2c3cc(C(=O)N[C@@H]4c5ccccc5C[C@@]4(C)O)ccc3OC[C@@H]2COC)C(=N)N1
4. C[C@@H]1C[C@@H](N2C(=N)NC(C)(C)CC2=O)c2cc(C(=O)N[C@@H]3c4ccccc4C[C@]3(C)O)ccc21
5. CCC1(CC)CC(=O)N([C@H]2c3cc(C(=O)N[C@H]4CC(C)(C)Oc5ccccc54)ccc3OCC2OC)C(=N)N1 (stereo partly shown) [Example 68A]

1: 9.15; 2: 6.60; 3: 9.10; 4: 7.57; 5: 9.00

Look up pEC50 for the entries below, preserving their order.
1. CCC1(CC)CC(=O)N([C@H]2C[C@@H](OC)c3ccc(C(=O)N[C@@H]4c5ccccc5OC[C@@]4(C)O)cc32)C(=N)N1
2. CCC1(CC)CC(=O)N([C@@H]2CC(C)(C)Oc3ccc(C(=O)N[C@H]4CCOc5ccccc54)cc32)C(=N)N1 [Example 33A]
3. CC[C@]1(C)CC(=O)N(C2c3cc(C(=O)N[C@@H]4c5ccccc5OC[C@@]4(C)O)ccc3OCC2OC)C(=N)N1 (stereo partly shown)
4. C[C@@H]1C[C@@H](N2C(=N)NC(C)(C)CC2=O)c2cc(C(=O)N[C@@H]3c4ccccc4C[C@@]3(C)O)ccc21

1: 6.61; 2: 7.55; 3: 7.19; 4: 7.36

====

- Test system: parasites (ring stage, in human red blood cell culture)
- experimentalDetails: Parasite LDH growth assay (antiparasite potency, Parasite Assay)
- Format: cell-based, Plasmodium falciparum
- settings: Plasmodium falciparum, Erythrocyte, 72 h, 0.7% rings, 2% haematocrit, 72 hours at 37° C., LDH readout of parasite growth
Assignment: determine reported pEC50 for the given molecules.
Give bare numbers, as −log10 of the molar value.

The following molecules have reported results that may help.
# molecule, testedTarget, pEC50
measured = [
    ("CCC1(CC)CC(=O)N([C@@H]2C[C@@H](OC)c3ccc(C(=O)N[C@@H]4c5ccccc5C[C@@]4(C)O)cc32)C(=N)N1 [Example 157]", "parasites (ring stage, in human red blood cell culture)", 7.70),
    ("COCC1(C)Oc2ccc(C(=O)N[C@@H]3c4ccccc4C[C@H]3O)cc2C1N1C(=N)NC(C)(C)CC1=O (stereo partly shown) [Example 146]", "parasites (ring stage, in human red blood cell culture)", 7.45),
    ("CCC1(CC)CC(=O)N([C@@H]2CCOc3ccc(C(=O)N[C@@H]4c5cc(F)ccc5OC(C)(C)[C@H]4O)cc32)C(=N)N1 [Example 25A]", "parasites (ring stage, in human red blood cell culture)", 9.30),
    ("CCC1(CC)CC(=O)N([C@@H]2CCOc3ccc(C(=O)N[C@@H](CO)c4ccccc4)cc32)C(=N)N1 [Example 92]", "parasites (ring stage, in human red blood cell culture)", 7.01),
    ("CC1(C)CC(=O)N(C2c3cc(C(=O)N[C@@H]4c5ccccc5C[C@]4(C)O)ccc3OC2(C)C)C(=N)N1 (stereo partly shown) [Example 108]", "parasites (ring stage, in human red blood cell culture)", 7.13),
    ("CCC1(CC)CC(=O)N([C@@H]2CCCc3ccc(C(=O)N[C@@H]4c5ccccc5C[C@H]4O)cc32)C(=N)N1 [Example 94]", "parasites (ring stage, in human red blood cell culture)", 8.72),
]

Alright, here's another molecule for you.
Consider the molecule CCC1(CC)CC(=O)N(C2c3cc(C(=O)N[C@@H]4c5ccccc5C[C@H]4O)ccc3OCC2(C)COC)C(=N)N1 (stereo partly shown) [Example 244] and give its recorded pEC50.
8.11
